These measurements were taken from ChEMBL document CHEMBL5346941.

assay: Ratio of drug concentration in Sprague-Dawley brain to plasma at 5 mg/kg, ip measured after 60 mins by LC-MS/MS analysis; assay type: ADME, organism-based; details: rat, read-out: BPR
Consider the following compounds; for each one, report its Kp at 1 h.

>  <compound>
C[C@H](NCc1ccc(OCc2cccc(F)c2)cc1)C(N)=O [SAFINAMIDE]

>  <measure>
Kp at 1 h

>  <measured-result>
14.4

$$$$

# next compound below
Ask: Could you share which Kp at 1 h value was measured for NC(=O)[C@@H]1C[C@H](F)CN1Cc1ccc2oc(-c3ccc(F)cc3)cc2c1 ?
Result: 16.2

###

Target: Amine oxidase [flavin-containing] B (Homo sapiens, UniProt P27338)
Sequence (P27338 whole entry): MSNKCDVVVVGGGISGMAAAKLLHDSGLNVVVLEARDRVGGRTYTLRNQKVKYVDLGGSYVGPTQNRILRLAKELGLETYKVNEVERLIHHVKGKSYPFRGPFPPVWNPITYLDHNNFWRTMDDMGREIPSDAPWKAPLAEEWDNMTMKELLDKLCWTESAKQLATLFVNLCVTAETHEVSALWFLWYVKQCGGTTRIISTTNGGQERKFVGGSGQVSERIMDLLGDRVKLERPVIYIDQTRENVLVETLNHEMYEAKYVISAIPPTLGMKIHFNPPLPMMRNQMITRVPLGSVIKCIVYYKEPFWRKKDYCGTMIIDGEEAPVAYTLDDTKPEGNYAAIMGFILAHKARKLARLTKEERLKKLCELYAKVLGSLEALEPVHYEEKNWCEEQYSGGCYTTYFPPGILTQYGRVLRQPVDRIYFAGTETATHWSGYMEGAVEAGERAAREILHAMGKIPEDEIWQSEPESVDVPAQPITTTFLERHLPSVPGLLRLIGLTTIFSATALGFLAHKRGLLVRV
Assay: Inhibition of recombinant human MAO-B expressed in Sf9 cells using p-tyramine as substrate preincubated for 15 mins followed by substrate addition and measured after 60 mins by luciferin based luminescence analysis
Consider the following compounds; for each one, report its IC50.
Numbers only, in µM.

Below, 2 compounds whose answers are already recorded.
>  <smi>
NC(=O)[C@@H]1CC(F)(F)CN1Cc1ccc2oc(-c3ccc(F)cc3)cc2c1

>  <IC50 [µM]>
0.833

$$$$
>  <smi>
COc1ccccc1-c1cc2cc(CN3CC[C@H]3C(N)=O)ccc2o1

>  <IC50 [µM]>
1.93

$$$$

# next compound below
Ask: Please provide the recorded IC50 for COc1ccccc1-c1cc2cc(CN[C@@H](C)C(N)=O)ccc2o1 , tested on Amine oxidase [flavin-containing] B (Homo sapiens, UniProt P27338).
Result: 9.49
